Sourced from ChEMBL document CHEMBL4622971

# Protocol Description: Intrinsic clearance in human hepatocytes at 0.5 uM incubated for 120 mins by LC-MS/MS analysis
# Assay type: ADME, cell-based, Hepatocyte
# Test Parameters: 2 h
Assay Readout: CLH

Query CLH for CNC(=O)c1cc(C(=O)NC2CC2)cn(Cc2cccc3c2CCN3)c1=O < 0.45 mL/min/g

Query CLH for CNC(=O)c1cc(C(=O)NC2CC2)cn(Cc2cccc3[nH]ncc23)c1=O < 0.45 mL/min/g

Query CLH for CNC(=O)c1cc(C(=O)NC2CC2)cn([C@H](C)c2ccccc2)c1=O < 0.87 mL/min/g

Query CLH for CCNC(=O)c1cc(C(=O)NC)c(=O)n(Cc2ccccc2)c1 < 0.87 mL/min/g

Query CLH for CNC(=O)c1cc(C(=O)NC2CC2)cn(Cc2cccc([C@@H](C)O)c2)c1=O < 0.45 mL/min/g

Query CLH for CNC(=O)c1cc(C(=O)NC2CC2)cn(Cc2ccccc2)c1=O < 0.45 mL/min/g

Query CLH for CNC(=O)c1cc(C(=O)NC2CC2)cn(Cc2cccc3[nH]ccc23)c1=O < 0.45 mL/min/g

* * *

# Protocol Description: Distribution coefficient, logD of the compound at pH 7.4 by chromatography
# Format: physicochemical
I'd appreciate it if you could supply chromatographic logD values for the items below.
Reply with just the number.

Query chromatographic logD for CNC(=O)c1cc(C(=O)NC2CCC2)cn(Cc2ccccn2)c1=O 2.2

Query chromatographic logD for CNC(=O)c1cc(C(=O)NC2CC2)cn(Cc2ccc(C)cc2)c1=O 3.5

Query chromatographic logD for CNC(=O)c1cc(C(=O)NC2CC2)cn([C@H](C)c2ccccc2)c1=O 3.5

* * *

# Protocol Description: Oral bioavailability in male Wistar Han rat at 3 mg/kg measured up to 7 hrs by LC-MS/MS analysis
# Format: ADME, organism-based
# Test Parameters: in vivo
I'd appreciate it if you could supply bioavailability values for the items below.
Entry rule: numbers only, all in %.

Query bioavailability for CNC(=O)c1cc(C(=O)NC2CC2)cn(Cc2cccc3[nH]ncc23)c1=O 14

Query bioavailability for CNC(=O)c1cc(C(=O)NC2CC2)cn(Cc2cccc3c2CCN3)c1=O 53

Query bioavailability for CNC(=O)c1cc(C(=O)NC2CC2)cn(Cc2ccccc2)c1=O [GSK620] 67

Query bioavailability for CCNC(=O)c1cc(C(=O)NC)c(=O)n(Cc2ccccc2)c1 104

* * *

# Protocol Description: Blood clearance in beagle dog at 10.5 mg/kg, iv measured up to 7 hrs by LC-MS/MS analysis
# Type: ADME, organism-based, Canis lupus familiaris
# Test Parameters: whole blood
Assay Readout: clearance (mL/min/kg)
Entry rule: numbers only, all in mL/min/kg.

Query clearance for CNC(=O)c1cc(C(=O)NC2CC2)cn(Cc2ccccc2)c1=O [GSK620] 2

* * *

# Protocol Description: Half life in male Wistar Han rat at 1 mg/kg, iv measured up to 7 hrs by LC-MS/MS analysis
# Type: ADME, organism-based
# Test Parameters: in vivo
I'd appreciate it if you could supply half-life values for the items below.
Entry rule: numbers only, all in min.

Query half-life for CNC(=O)c1cc(C(=O)NC2CC2)cn(Cc2cccc([C@@H](C)O)c2)c1=O 24

Query half-life for CNC(=O)c1cc(C(=O)NC2CC2)cn(Cc2cccc3[nH]ccc23)c1=O 48

Query half-life for CNC(=O)c1cc(C(=O)NC2CC2)cn(Cc2ccccc2)c1=O [GSK620] 66

Query half-life for CNC(=O)c1cc(C(=O)NC2CC2)cn(Cc2cccc3[nH]ncc23)c1=O 24

Query half-life for CNC(=O)c1cc(C(=O)NC2CC2)cn(Cc2cccc3c2CCN3)c1=O 36

Query half-life for CCNC(=O)c1cc(C(=O)NC)c(=O)n(Cc2ccccc2)c1 36
